- Test Description: in vivo
- Design: species or system mice
- Condition Info: naked (nude), mouse, iv, 100 uCi, total radioactivity, % ID/g Brain
Non-standard residues stand in square brackets, D forms with d. Residues, ends and D or L forms follow the SMILES beside them. *: point of attachment. DOTA = O=C(O)CN1CCN(CC(=O)O)CCN(CC(=O)*)CCN(CC(=O)O)CC1; Aib = CC(C)(N)C(=O)O; AEA = NCCOCC(=O)O
Here the recorded tissue uptake at 1 h is given for each entry.

{"Compound": "CC[C@H](C)[C@H](NC(=O)C(C)(C)NC(=O)[C@H](CC(=O)O)NC(=O)[C@H](CC(N)=O)NC(=O)CN1CCN(CC(=O)O)CCN(CC(=O)O)CCN(CC(=O)O)CC1)C(=O)N[C@@H](CC(N)=O)C(=O)O [^68Ga-TM11, metal not drawn] ({DOTA}-ND[Aib]IN-OH)", "tissue uptake at 1 h": "0.18 %ID/g"}
{"Compound": "CC[C@H](C)[C@H](NC(=O)[C@@H](NC(=O)[C@H](CC(=O)O)NC(=O)[C@H](CC(N)=O)NC(=O)COCCNC(=O)CN1CCN(CC(=O)O)CCN(CC(=O)O)CCN(CC(=O)O)CC1)C(C)C)C(=O)N[C@@H](CC(N)=O)C(=O)O [^68Ga-TM13, metal not drawn] ({DOTA-AEA}-NDVIN-OH)", "tissue uptake at 1 h": "0.09 %ID/g"}

----------
- Test Description: in vivo
- Parameters: species or system mice
- Condition Info: naked (nude), mouse, iv, 100 uCi, total radioactivity, % ID/g Liver
Non-standard residues stand in square brackets, D forms with d. Residues, ends and D or L forms follow the SMILES beside them. *: point of attachment. DOTA = O=C(O)CN1CCN(CC(=O)O)CCN(CC(=O)*)CCN(CC(=O)O)CC1; Aib = CC(C)(N)C(=O)O; AEA = NCCOCC(=O)O
Measurement Name: tissue uptake at 1 h (%ID/g)

{"Compound": "CC[C@H](C)[C@H](NC(=O)C(C)(C)NC(=O)[C@H](CC(=O)O)NC(=O)[C@H](CC(N)=O)NC(=O)CN1CCN(CC(=O)O)CCN(CC(=O)O)CCN(CC(=O)O)CC1)C(=O)N[C@@H](CC(N)=O)C(=O)O [^68Ga-TM11, metal not drawn] ({DOTA}-ND[Aib]IN-OH)", "Measurement Name": "tissue uptake at 1 h", "Uom": "%ID/g", "Measured Value": 0.29}
{"Compound": "CC[C@H](C)[C@H](NC(=O)[C@@H](NC(=O)[C@H](CC(=O)O)NC(=O)[C@H](CC(N)=O)NC(=O)COCCNC(=O)CN1CCN(CC(=O)O)CCN(CC(=O)O)CCN(CC(=O)O)CC1)C(C)C)C(=O)N[C@@H](CC(N)=O)C(=O)O [^68Ga-TM13, metal not drawn] ({DOTA-AEA}-NDVIN-OH)", "Measurement Name": "tissue uptake at 1 h", "Uom": "%ID/g", "Measured Value": 0.16}

----------
- Test Description: in vivo
- Parameters: species or system mice
- Condition Info: naked (nude), mouse, iv, 100 uCi, total radioactivity, % ID/g Intestine
Non-standard residues stand in square brackets, D forms with d. Residues, ends and D or L forms follow the SMILES beside them. *: point of attachment. DOTA = O=C(O)CN1CCN(CC(=O)O)CCN(CC(=O)*)CCN(CC(=O)O)CC1; Aib = CC(C)(N)C(=O)O; AEA = NCCOCC(=O)O

{"Compound": "CC[C@H](C)[C@H](NC(=O)[C@@H](NC(=O)[C@H](CC(=O)O)NC(=O)[C@H](CC(N)=O)NC(=O)COCCNC(=O)CN1CCN(CC(=O)O)CCN(CC(=O)O)CCN(CC(=O)O)CC1)C(C)C)C(=O)N[C@@H](CC(N)=O)C(=O)O [^68Ga-TM13, metal not drawn] ({DOTA-AEA}-NDVIN-OH)", "tissue uptake at 1 h / %ID/g": 0.2}
{"Compound": "CC[C@H](C)[C@H](NC(=O)C(C)(C)NC(=O)[C@H](CC(=O)O)NC(=O)[C@H](CC(N)=O)NC(=O)CN1CCN(CC(=O)O)CCN(CC(=O)O)CCN(CC(=O)O)CC1)C(=O)N[C@@H](CC(N)=O)C(=O)O [^68Ga-TM11, metal not drawn] ({DOTA}-ND[Aib]IN-OH)", "tissue uptake at 1 h / %ID/g": 0.59}
